Quick reference: Hipp-Arg (% conversion) of the listed items.
test: Conversion of Hipp-Arg by purified HCPB mutants, 30 minutes, HPLC (Example 17); assay type: biochemical; details: enzyme 25 μg/ml; 0.5 mM substrate; 30 minutes at 37° C.
Only the number, expressed in %, is required.

Would you please look over these solved cases?
molecule: [G251N,D253K]: HCPB mutant with G251N and D253K, (His)6-c-myc tag (protein, UniProt P15086 111-417, looked up, variant G251N D253K, (His)6-c-myc tag) Carboxypeptidase B: ATGHSYEKYNKWETIEAWTQQVATENPALISRSVIGTTFEGRAIYLLKVGKAGQNKPAIFMDCGFHAREWISPAFCQWFVREAVRTYGREIQVTELLDKLDFYVLPVLNIDGYIYTWTKSRFWRKTRSTHTGSSCIGTDPNRNFDAGWCEIGASRNPCDETYCGPAAESEKETKALADFIRNKLSSIKAYLTIHSYSQMMIYPYSYAYKLGENNAELNALAKATVKELASLHGTKYTYGPGATTIYPAAGNSKDWAYDQGIRYSFTFELRDTGRYGFLLPESQIRATCEETFLAIKYVASYVLEHLY
unit text: %
Hipp-Arg (% conversion): 1.8
//
molecule: [G251S, D253K]: HCPB mutant with G251S and D253K, (His)6-c-myc tag (protein, UniProt P15086 111-417, looked up, variant G251S D253K, (His)6-c-myc tag) Carboxypeptidase B: ATGHSYEKYNKWETIEAWTQQVATENPALISRSVIGTTFEGRAIYLLKVGKAGQNKPAIFMDCGFHAREWISPAFCQWFVREAVRTYGREIQVTELLDKLDFYVLPVLNIDGYIYTWTKSRFWRKTRSTHTGSSCIGTDPNRNFDAGWCEIGASRNPCDETYCGPAAESEKETKALADFIRNKLSSIKAYLTIHSYSQMMIYPYSYAYKLGENNAELNALAKATVKELASLHGTKYTYGPGATTIYPAAGSSKDWAYDQGIRYSFTFELRDTGRYGFLLPESQIRATCEETFLAIKYVASYVLEHLY
unit text: %
Hipp-Arg (% conversion): 0.8

Given [G251T,D253R]HCPB: HCPB mutant with G251T and D253R, (His)6-c-myc tag (protein, UniProt P15086 111-417, looked up, variant G251T D253R, (His)6-c-myc tag) Carboxypeptidase B: ATGHSYEKYNKWETIEAWTQQVATENPALISRSVIGTTFEGRAIYLLKVGKAGQNKPAIFMDCGFHAREWISPAFCQWFVREAVRTYGREIQVTELLDKLDFYVLPVLNIDGYIYTWTKSRFWRKTRSTHTGSSCIGTDPNRNFDAGWCEIGASRNPCDETYCGPAAESEKETKALADFIRNKLSSIKAYLTIHSYSQMMIYPYSYAYKLGENNAELNALAKATVKELASLHGTKYTYGPGATTIYPAAGTSRDWAYDQGIRYSFTFELRDTGRYGFLLPESQIRATCEETFLAIKYVASYVLEHLY , state its recorded Hipp-Arg (% conversion).
0
